Tested on: Subjects With Active Crohn's Disease With Evidence of Mucosal Ulceration
Assay: Study 3 - Creatinine levels
Assay type: in vivo, human
Details: 10 weeks results; 200 mg q.d.; week 4
valueType: Study 3 - Creatinine Mean CFB
Give me the value, and tack the unit on after it.

The compound identified as `O=C(Nc1nc2cccc(-c3ccc(CN4CCS(=O)(=O)CC4)cc3)n2n1)C1CC1` registered its Study 3 - Creatinine Mean CFB at 4.16 µM

----------
Test system: Subjects With Active Crohn's Disease With Evidence of Mucosal Ulceration
Test: Study 3 - Creatinine levels
Format: in vivo, human
Settings: 10 weeks results; 200 mg q.d.; week 10
valueType: Study 3 - Creatinine Mean CFB
Give me the value, and tack the unit on after it.

The compound identified as O=C(Nc1nc2cccc(-c3ccc(CN4CCS(=O)(=O)CC4)cc3)n2n1)C1CC1 [Compound 1] registered its Study 3 - Creatinine Mean CFB at 6.08 µM

Cited source for all entries: patent US20180200257A1
